assay.notes: Ex-vivo skin permeation, Franz diffusion cells
Type: in vitro ADME, Sprague-Dawley rats
experimental.conditions: total applied minus permeated and donor-recovered amounts, 48h
observable: Unrecovered/ trapped drug

compound=CCCCCCCC(=O)N[C@@H](CCCCN)C(=O)N[C@H](C(=O)O)[C@@H](C)O observable="Unrecovered/ trapped drug" result="≈ 34%"
compound=CCCCCCCCCCCC(=O)N[C@@H](CCCCN)C(=O)N[C@H](C(=O)O)[C@@H](C)O observable="Unrecovered/ trapped drug" result=≈78%
compound=CCCCCCCCCC(=O)N[C@@H](CCCCN)C(=O)N[C@H](C(=O)O)[C@@H](C)O observable="Unrecovered/ trapped drug" result=≈42%
compound="CCCCCCCCCCCCCCCC(=O)N[C@@H](CCCCN)C(=O)N[C@H](C(=O)O)[C@@H](C)O [Compound C16-KT, reference compound]" observable="Unrecovered/ trapped drug" result=≈93%

---

Form field: stability range in the aqueous medium after 72 hours (one value per entry).
assay.notes: Short-term stability of aqueous solutions
Assay type: physicochemical
experimental.conditions: aqueous solutions at −20, 4, 25 and 37 °C, compared with fresh samples

// returns reported stability range in the aqueous medium after 72 hours for input CCCCCCCC(=O)N[C@@H](CCCCN)C(=O)N[C@H](C(=O)O)[C@@H](C)O [Compound C8-KT]
98.9-101.6%

Please answer likewise for CCCCCCCCCCCCCCCC(=O)N[C@@H](CCCCN)C(=O)N[C@H](C(=O)O)[C@@H](C)O [Compound C16-KT, reference compound]
93.2-104.2%

Please answer likewise for CCCCCCCCCCCC(=O)N[C@@H](CCCCN)C(=O)N[C@H](C(=O)O)[C@@H](C)O [Compound C12-KT]
96.2-101.8%

Please answer likewise for CCCCCCCCCC(=O)N[C@@H](CCCCN)C(=O)N[C@H](C(=O)O)[C@@H](C)O [Compound C10-KT]
96.6-103.7%

Please answer likewise for C[C@@H](O)[C@H](NC(=O)[C@@H](N)CCCCN)C(=O)O [KT, lysine-threonine, reference compound]
99.7-100.3%

---

assay.notes: Surface tension and critical micelle concentration, Du Noüy ring method
Format: physicochemical
experimental.conditions: aqueous, 25±0.5 °C; mean ± SD, n=3
Form field: CMC (one value per entry).
Answer format: numeric, mg/L implied, no suffix.

For orientation, consider the following solved cases.
compound=CCCCCCCCCC(=O)N[C@@H](CCCCN)C(=O)N[C@H](C(=O)O)[C@@H](C)O scale_unit=mg/L result_number=42.24
compound=CCCCCCCC(=O)N[C@@H](CCCCN)C(=O)N[C@H](C(=O)O)[C@@H](C)O scale_unit=mg/L result_number=194.95
compound="CCCCCCCCCCCCCCCC(=O)N[C@@H](CCCCN)C(=O)N[C@H](C(=O)O)[C@@H](C)O [Compound C16-KT, reference compound]" scale_unit=mg/L result_number=1.89

// returns reported CMC for input CCCCCCCCCCCC(=O)N[C@@H](CCCCN)C(=O)N[C@H](C(=O)O)[C@@H](C)O
15.31

---

assay.notes: Ex-vivo skin permeation, Franz diffusion cells
Assay type: in vitro ADME, Sprague-Dawley rats
experimental.conditions: rat skin, saturated solution donor, 37 °C, 48h; mean ± SD, n=3
Lab note: anything with Flux at or over 0.003 µg/cm^2 /h counts as y; the rest go in n.

compound="CCCCCCCCCC(=O)N[C@@H](CCCCN)C(=O)N[C@H](C(=O)O)[C@@H](C)O [Compound C10-KT]" assigned_class=y
compound="CCCCCCCC(=O)N[C@@H](CCCCN)C(=O)N[C@H](C(=O)O)[C@@H](C)O [Compound C8-KT]" assigned_class=y

Please check the record CCCCCCCCCCCC(=O)N[C@@H](CCCCN)C(=O)N[C@H](C(=O)O)[C@@H](C)O [Compound C12-KT] and state if its Flux is at or above 0.003 µg/cm^2 /h.
y

Please answer likewise for CCCCCCCCCCCCCCCC(=O)N[C@@H](CCCCN)C(=O)N[C@H](C(=O)O)[C@@H](C)O [Compound C16-KT, reference compound]
n
